Measured IgG binding (optical density), listed per entry.
Tested on: serum IgG anti-estrogen antibodies
Assay: ELISA binding of IgG estrogen antibodies to different hormones in solid phase
Design: species or system human
Details: sample 2; hormone in solid phase; 405 nm

| compound | IgG binding (optical density) |
| --- | --- |
| C[C@]12CCC(=O)C=C1CC[C@@H]1[C@@H]2[C@@H](O)C[C@@]2(C)[C@H]1CC[C@]2(O)C(=O)CO [HC, Hydrocortisone] | 0.31 |
| CC(=O)[C@H]1CC[C@H]2[C@@H]3CCC4=CC(=O)CC[C@]4(C)[C@H]3CC[C@]12C | 0.48 |
| CC(C)CCC[C@@H](C)[C@H]1CC[C@H]2[C@@H]3CC=C4C[C@@H](O)CC[C@]4(C)[C@H]3CC[C@]12C | 0.19 |
| CC(=O)[C@@]1(O)CC[C@H]2[C@@H]3CCC4=CC(=O)CC[C@]4(C)[C@H]3CC[C@@]21C [HP, 17-α-hydroxy-progesterone] | 0.75 |
